Taken from paper PMC12196213.

test system: HeLa (human cervical adenocarcinoma); experiment: MTT cytotoxicity assay, HeLa; format: cell-based; settings: Homo sapiens; HeLa, 72 h, MTT
assay.metric: IC50

INSERT INTO results (smiles_notation, measurement) VALUES
  ('CC1(C)CCC2=C(O1)c1ccccc1/C(=N/NC(=S)Nc1ccc([N+](=O)[O-])cc1)C2=O', '2810 nM'),
  ('Cc1ccc(NC(=S)N/N=C2\C(=O)C3=C(OC(C)(C)CC3)c3ccccc32)cc1', '17800 nM'),
  ('CC1(C)CCC2=C(O1)c1ccccc1C(=O)C2=O', '2390 nM');

====

// values below are reported IC50
system: HeLa (human cervical adenocarcinoma); assay: MTT cytotoxicity assay, HeLa; assay type: cell-based; details: Homo sapiens; HeLa, 48 h, MTT
assay.metric: IC50 (µM)

INSERT INTO results (compound, measurement) VALUES
  ('Cc1ccc(NC(=S)N/N=C2\C(=O)C3=C(OC(C)(C)CC3)c3ccccc32)cc1 [BV5]', 24.5),
  ('CC1(C)CCC2=C(O1)c1ccccc1/C(=N/NC(=S)Nc1ccc([N+](=O)[O-])cc1)C2=O [BV3]', 23.5),
  ('CC1(C)CCC2=C(O1)c1ccccc1C(=O)C2=O [β-lap, β-Lapachone]', 8.87);
